Source listed as patent US20190367592A1.

# systemUnderTest: T1, recombinant human Tau monomer, 2N4R isoform (amino acids 2-441) (human, UniProt P10636-8 2-441)
# T1 construct: range 2-441; N-terminal His-tag removed with TEV protease; also called monomeric Tau
# T1 sequence (P10636 other isoform, or with tags, fused parts or gaps limits assumed): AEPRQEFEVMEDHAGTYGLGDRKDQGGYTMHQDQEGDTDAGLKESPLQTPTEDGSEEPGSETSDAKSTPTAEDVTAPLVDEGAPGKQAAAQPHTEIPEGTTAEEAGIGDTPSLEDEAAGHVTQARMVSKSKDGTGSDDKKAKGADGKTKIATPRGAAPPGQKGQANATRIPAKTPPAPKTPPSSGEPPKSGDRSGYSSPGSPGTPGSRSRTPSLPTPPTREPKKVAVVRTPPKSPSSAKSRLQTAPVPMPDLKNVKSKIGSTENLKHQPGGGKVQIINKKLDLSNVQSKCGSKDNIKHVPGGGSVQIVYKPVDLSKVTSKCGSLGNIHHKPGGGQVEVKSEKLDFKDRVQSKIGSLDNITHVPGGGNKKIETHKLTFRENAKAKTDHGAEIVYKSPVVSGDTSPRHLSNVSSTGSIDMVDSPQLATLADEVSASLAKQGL
# runDescription: SPR, mIgG2a captured, Tau monomer analyte, 1:1 fit
Please respond with reported Kd for every item in the list.
Note to self: number, then unit, no commentary.

Illustrative cases are given below, each with its answer.
binder	Kd
19H6-F7 (antibody, mouse IgG2a, V domains shown) VH: EVQLVESGGDLVKPGGSLKLSCAASGFTFSSYGMSWVRQTPDKRLEWVATISSGGTYTYYPDSVKGRFTISRDNAKNTLYLQMSSLKSEDTAMYYCAPSYDGAMDYWGQGTSVTVSS VL: DVLMTQTPLSLPVSLGDQASISCRSSQSIVHSNGNTYLEWYLQKPGQSPKLLIYKVSNRFSGVPDRFSGSGSGTDFTLKISRVEAEDLGVYYCFQGSLVPWTFGGGTKLEIK	10 nM
123E9-A1 (antibody, mouse IgG2a, V domains shown) VH: EVQLQQSGPELVKPGASVKMSCKASGYTFTDYYMKWVKQSHGKSLEWIGDIDPNNGGTSYNQKFKGKATLTVDKSSSTAYMQLNSLTSEDSAVYYCARSAGFGDSFSFWGLGTLVTVSA VL: DVLMTQTPLSLPVSLGDQASISCRSSQSIVHSNGNTYLEWYLQKPGQSPKLLIYKVSNRFSGVPDRFSGSGSGTDFTLKISRVEAEDLGFYYCFQGSHVPPTFGGGTKLEIK	52 nM

Please turn your attention to the following entry.
For reference, reported Kd for 54C1-H11 (antibody, mouse IgG2a, V domains shown) VH: EVQLVESGGDLVKPGGSLKVSCVASGFTFRSYGMSWVRQTPDKRLDWVATISSGGNYTYYPDSVKGRFTISRDNAKNTLYLQMSSLKSEDTAMYYCASSYSGAMDYWGQGTSVTVSS VL: DTVMTQSPLSLPVSLGDQASISCRSSQSIVHSNGNTYLEWYLQKPGQSPKLLIYTVSNRFSGVPDRFSGSGSGTDFTLKISRVEAEDLGVYYCFQGSHVPWTFGGGTKLEIK stands at 0.6 nM
